Biological target: Histone deacetylase 11 (Homo sapiens)
Sequence (Q96DB2 whole entry): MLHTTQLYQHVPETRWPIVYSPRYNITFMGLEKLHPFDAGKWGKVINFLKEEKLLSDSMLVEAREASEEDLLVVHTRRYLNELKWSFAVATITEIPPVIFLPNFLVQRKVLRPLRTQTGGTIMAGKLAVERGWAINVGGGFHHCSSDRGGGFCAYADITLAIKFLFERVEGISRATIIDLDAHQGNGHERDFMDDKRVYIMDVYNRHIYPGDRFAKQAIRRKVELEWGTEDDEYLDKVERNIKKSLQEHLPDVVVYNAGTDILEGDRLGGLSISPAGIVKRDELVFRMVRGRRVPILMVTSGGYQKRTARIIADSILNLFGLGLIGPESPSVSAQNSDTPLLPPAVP
Assay: Inhibition of human recombinant HDAC11
pIC50: −log10 of the molar value.
recorded endpoint: pIC50

[[record]]
input_smiles = "O=C(CCCCCCC(=O)C(F)(F)F)Nc1ccccc1"
recorded_endpoint = "pIC50"
meas_value = 4.00

[[record]]
input_smiles = "C[Si](O)(O)CCCCCCC(=O)Nc1ccccc1"
recorded_endpoint = "pIC50"
meas_value = 4.24


---

Target: Histone deacetylase 3 (Homo sapiens)
Sequence (O15379 whole entry): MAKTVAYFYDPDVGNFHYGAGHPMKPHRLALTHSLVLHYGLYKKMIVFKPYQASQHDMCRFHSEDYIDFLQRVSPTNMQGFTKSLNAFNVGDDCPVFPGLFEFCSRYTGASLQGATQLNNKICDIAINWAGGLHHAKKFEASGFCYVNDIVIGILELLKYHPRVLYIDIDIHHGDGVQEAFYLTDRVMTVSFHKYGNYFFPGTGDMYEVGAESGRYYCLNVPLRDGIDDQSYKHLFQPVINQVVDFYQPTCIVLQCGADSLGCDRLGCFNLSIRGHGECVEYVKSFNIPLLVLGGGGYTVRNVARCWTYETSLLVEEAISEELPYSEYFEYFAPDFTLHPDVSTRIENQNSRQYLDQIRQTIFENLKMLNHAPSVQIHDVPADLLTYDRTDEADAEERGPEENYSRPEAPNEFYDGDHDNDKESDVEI
Experiment: Inhibition of human recombinant HDAC3
pIC50: −log10 of the molar value.
recorded endpoint: pIC50

[[record]]
input_smiles = "O=C(c1ccc(C(=O)C(F)(F)C(F)(F)F)s1)N1CCc2ccccc21"
meas_value = 5.54

[[record]]
input_smiles = "C[Si](O)(O)CCCCCCC(=O)Nc1ccccc1"
meas_value = 6.22


---

Molecular target: Protein deacetylase HDAC6 (Homo sapiens)
Sequence (Q9UBN7 whole entry): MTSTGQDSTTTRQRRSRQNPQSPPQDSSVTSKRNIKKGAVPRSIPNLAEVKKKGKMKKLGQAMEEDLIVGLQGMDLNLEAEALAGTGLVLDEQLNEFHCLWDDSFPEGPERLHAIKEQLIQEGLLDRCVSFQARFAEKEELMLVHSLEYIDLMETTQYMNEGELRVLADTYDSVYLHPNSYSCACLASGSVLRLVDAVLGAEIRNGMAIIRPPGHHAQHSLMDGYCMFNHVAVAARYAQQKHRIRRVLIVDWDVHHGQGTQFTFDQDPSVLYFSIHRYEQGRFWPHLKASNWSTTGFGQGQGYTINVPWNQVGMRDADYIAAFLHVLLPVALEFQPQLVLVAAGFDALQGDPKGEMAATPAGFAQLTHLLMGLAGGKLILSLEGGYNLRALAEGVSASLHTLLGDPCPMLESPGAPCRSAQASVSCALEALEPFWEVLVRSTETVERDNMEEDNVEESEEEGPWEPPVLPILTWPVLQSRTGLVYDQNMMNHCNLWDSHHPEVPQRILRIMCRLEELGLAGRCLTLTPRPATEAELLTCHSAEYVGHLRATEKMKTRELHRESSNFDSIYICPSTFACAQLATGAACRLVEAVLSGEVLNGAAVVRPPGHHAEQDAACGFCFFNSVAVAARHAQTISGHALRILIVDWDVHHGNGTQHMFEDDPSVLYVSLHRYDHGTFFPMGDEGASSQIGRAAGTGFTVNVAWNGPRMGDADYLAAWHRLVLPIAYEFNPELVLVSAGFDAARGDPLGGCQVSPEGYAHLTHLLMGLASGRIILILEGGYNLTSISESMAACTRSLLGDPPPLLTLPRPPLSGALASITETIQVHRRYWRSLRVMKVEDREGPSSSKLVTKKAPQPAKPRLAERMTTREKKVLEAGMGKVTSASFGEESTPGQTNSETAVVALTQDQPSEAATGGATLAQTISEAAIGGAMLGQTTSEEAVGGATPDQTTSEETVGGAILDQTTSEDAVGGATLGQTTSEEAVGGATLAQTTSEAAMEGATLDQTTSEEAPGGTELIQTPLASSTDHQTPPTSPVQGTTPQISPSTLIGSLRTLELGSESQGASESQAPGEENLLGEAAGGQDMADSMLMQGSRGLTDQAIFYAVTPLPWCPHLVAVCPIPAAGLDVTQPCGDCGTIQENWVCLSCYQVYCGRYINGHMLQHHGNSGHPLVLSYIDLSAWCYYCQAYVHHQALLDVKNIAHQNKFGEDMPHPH
Test: Inhibition of human recombinant HDAC6 using ArgHisLysLys(Ac) as substrate by fluorescence based analysis
recorded endpoint: IC50

[[record]]
compound = "O=C(CCCCC[C@H]1CN(O)C1=O)Nc1ccccc1"
meas_value = "174 µM"

[[record]]
compound = "O=C(CCCCCC1CNC1=O)Nc1ccccc1 (centres undefined)"
meas_value = "74.5 µM"

[[record]]
compound = "Nc1ccccc1N1CC(CCCCCC(=O)Nc2ccccc2)C1=O (centres undefined)"
meas_value = "> 1000 µM"

[[record]]
compound = "O=C(CCCCC[C@@H]1CN(O)C1=O)Nc1ccccc1"
meas_value = "132 µM"


---

Biological target: Polyamine deacetylase HDAC10 (Homo sapiens, UniProt Q969S8)
Sequence (Q969S8 whole entry): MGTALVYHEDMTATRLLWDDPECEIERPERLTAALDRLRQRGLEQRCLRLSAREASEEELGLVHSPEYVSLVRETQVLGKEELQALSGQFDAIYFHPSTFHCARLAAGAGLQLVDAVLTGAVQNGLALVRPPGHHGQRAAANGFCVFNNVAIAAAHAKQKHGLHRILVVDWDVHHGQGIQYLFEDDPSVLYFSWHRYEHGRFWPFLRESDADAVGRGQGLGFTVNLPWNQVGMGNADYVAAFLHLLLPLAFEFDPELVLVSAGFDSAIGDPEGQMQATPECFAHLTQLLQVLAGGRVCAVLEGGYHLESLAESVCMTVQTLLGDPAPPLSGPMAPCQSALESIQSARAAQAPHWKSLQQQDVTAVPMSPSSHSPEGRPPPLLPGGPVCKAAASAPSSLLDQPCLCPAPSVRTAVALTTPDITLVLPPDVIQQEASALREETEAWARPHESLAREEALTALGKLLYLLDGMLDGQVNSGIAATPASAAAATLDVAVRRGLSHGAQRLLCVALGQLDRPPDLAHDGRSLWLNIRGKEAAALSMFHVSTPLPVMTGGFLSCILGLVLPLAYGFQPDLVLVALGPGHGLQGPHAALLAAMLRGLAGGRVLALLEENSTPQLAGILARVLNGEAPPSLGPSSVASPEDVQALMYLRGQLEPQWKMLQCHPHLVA
Test: Inhibition of human recombinant HDAC10
pIC50: −log10 of the molar value.
recorded endpoint: pIC50

[[record]]
input_smiles = "C[Si](O)(O)CCCCCCC(=O)Nc1ccccc1"
target_or_system = "Polyamine deacetylase HDAC10 (Homo sapiens, UniProt Q969S8)"
meas_value = 5.30

[[record]]
input_smiles = "CCN(CC)C(=S)SSCCCCCC(=O)Nc1ccccc1"
target_or_system = "Polyamine deacetylase HDAC10 (Homo sapiens, UniProt Q969S8)"
meas_value = 6.85

[[record]]
input_smiles = "O=C(CCCCCCC(=O)C(F)(F)F)Nc1ccccc1"
target_or_system = "Polyamine deacetylase HDAC10 (Homo sapiens, UniProt Q969S8)"
meas_value = 4.72


---

Molecular target: Protein deacetylase HDAC6 (Homo sapiens, UniProt Q9UBN7)
Sequence (Q9UBN7 whole entry): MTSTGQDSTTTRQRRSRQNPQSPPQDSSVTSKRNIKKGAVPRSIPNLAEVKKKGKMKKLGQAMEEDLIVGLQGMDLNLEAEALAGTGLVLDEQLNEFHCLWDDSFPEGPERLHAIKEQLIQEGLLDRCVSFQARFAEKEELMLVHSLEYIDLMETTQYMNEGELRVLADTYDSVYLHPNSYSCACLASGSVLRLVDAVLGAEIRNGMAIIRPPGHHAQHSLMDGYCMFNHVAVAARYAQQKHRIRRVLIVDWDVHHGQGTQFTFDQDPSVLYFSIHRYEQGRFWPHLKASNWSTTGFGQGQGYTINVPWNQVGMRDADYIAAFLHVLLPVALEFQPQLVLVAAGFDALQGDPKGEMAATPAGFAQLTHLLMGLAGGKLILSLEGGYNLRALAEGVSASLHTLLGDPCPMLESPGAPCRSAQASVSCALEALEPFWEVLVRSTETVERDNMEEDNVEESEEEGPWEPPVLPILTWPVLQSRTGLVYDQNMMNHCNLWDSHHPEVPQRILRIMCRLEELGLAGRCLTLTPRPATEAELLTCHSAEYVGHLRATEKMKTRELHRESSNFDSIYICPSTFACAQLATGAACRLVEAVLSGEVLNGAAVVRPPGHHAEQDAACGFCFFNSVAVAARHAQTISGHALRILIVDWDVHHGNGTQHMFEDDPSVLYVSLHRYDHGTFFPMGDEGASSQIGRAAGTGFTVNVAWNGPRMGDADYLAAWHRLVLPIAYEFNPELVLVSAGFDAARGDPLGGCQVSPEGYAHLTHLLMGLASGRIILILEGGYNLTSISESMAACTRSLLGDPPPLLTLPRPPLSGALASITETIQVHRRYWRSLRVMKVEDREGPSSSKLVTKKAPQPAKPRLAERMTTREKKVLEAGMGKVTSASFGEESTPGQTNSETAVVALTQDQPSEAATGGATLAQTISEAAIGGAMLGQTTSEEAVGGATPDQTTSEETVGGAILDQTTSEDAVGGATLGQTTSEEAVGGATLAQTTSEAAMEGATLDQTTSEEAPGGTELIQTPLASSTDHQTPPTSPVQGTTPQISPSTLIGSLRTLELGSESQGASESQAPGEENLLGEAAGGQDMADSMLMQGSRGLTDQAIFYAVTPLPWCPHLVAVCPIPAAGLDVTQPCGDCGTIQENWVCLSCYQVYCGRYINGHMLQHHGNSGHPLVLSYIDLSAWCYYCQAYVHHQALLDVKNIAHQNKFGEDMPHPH
Test: Inhibition of human full-length recombinant HDAC6 incubated for 2 hrs by fluorescence based analysis
recorded endpoint: IC50

[[record]]
input_smiles = "Cc1onc(-c2ccccc2)c1C(=O)NCCCCCCC(=O)NO"
recorded_endpoint = "IC50"
meas_value = "180 nM"


---

Test: Antiproliferative activity against human HC-04 cells assessed as cell growth inhibition measured after 72 hrs by MTT assay
Format: functional, cell-based
Conditions: HC04, 72 h
pIC50: −log10 of the molar value.
Each entry below lists one item and its recorded pIC50 value.
recorded endpoint: pIC50

[[record]]
input_smiles = "NC(=S)NC(=O)CCCCC(=O)Nc1ccccc1"
meas_value = 4.52

[[record]]
input_smiles = "NC(=S)NC(=O)CCCCCC(=O)Nc1ccccc1"
meas_value = 4.62


---

Experiment: Metabolic stability in mouse liver microsomes assessed as half life
Type: ADME, Microsome
recorded endpoint: half-life (h)

[[record]]
input_smiles = "Nc1ccccc1NC(=O)CCCCCCC(=O)Nc1ccccc1"
meas_value = 1.9


---

Molecular target: Histone deacetylase 1 (Homo sapiens, UniProt Q13547)
Sequence (Q13547 whole entry): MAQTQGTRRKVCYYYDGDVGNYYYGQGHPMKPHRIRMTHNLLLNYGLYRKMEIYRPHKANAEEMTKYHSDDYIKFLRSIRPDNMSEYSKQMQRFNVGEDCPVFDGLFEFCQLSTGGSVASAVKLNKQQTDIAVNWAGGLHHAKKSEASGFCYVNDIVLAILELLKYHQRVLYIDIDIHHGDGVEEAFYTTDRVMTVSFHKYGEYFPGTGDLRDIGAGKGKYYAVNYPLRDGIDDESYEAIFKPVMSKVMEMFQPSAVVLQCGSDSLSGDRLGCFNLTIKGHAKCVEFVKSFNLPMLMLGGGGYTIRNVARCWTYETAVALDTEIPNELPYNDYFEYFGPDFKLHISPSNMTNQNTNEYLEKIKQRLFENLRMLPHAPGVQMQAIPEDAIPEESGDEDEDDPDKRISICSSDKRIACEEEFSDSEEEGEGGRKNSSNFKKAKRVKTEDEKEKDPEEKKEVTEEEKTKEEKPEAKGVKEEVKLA
Assay: Inhibition of human full-length recombinant HDAC1 incubated for 2 hrs by fluorescence based analysis
recorded endpoint: IC50 (µM)

[[record]]
input_smiles = "Cc1onc(-c2ccccc2)c1C(=O)NCCCCCCC(=O)NO"
recorded_endpoint = "IC50"
meas_value = 3


---

Test: Dissociation constant, pKa of the compound
Assay type: physicochemical
recorded endpoint: pKa

[[record]]
input_smiles = "O=C(CCCCCCC(=O)Nc1ccccc1)NO"
meas_value = 9.4

